# Tested on: P388 leukemia ip, CD2F1 mice, survival T/C
# procedureDetails: NCI In Vivo Anticancer Drug Screen. Data for tumor model P388 Leukemia (intraperitoneal) in CD2F1 (CDF1) mice
# testContext: endpoint: median survival time; dose: 200.0 mg/kg/injection; schedule: Q01DX005 (ip); vehicle: saline; higher = longer survival
# Description: The antitumor activity of compounds was measured in mice bearing transplantable tumors. Survival or tumor size were measured and the results are expressed as the measurement made in the treated group (T) divided by the measurement made in the vehicle treated control group (C). The tumor model used in this assay is P388 Leukemia (intraperitoneal) in CD2F1 (CDF1) mice
Toxic doses and inconclusive results are not listed. Numbered stars: 1 amine (or outer) side, 2 acyl side, 3 side chain; on linkers, the order of the positions; unused ones are H or OH. Peptide text beside a SMILES is read from it. ξ: configuration not given here. ξγGlu = O=C(O)C(CCC(=O)[*:2])N[*:1]

compound: CC(=O)NC1C(Nc2ccc(S(=O)(=O)NC(C)=O)cc2)OC(CO)C(O)C1O (stereo not drawn)
T/C: 97 % of control
--
compound: NCC(=O)NC(CCCN=C(N)N)C(=O)O (stereo not drawn)
T/C: 99 % of control
--
compound: NC(CCC(=O)NCC(=O)NCC(=O)O)C(=O)O (stereo not drawn) (ξγGlu-Gly-Gly-OH)
T/C: 102 % of control
--
compound: CC(CCO)CCC(Br)C(C)(C)Br (stereo not drawn)
T/C: 100 % of control
--
compound: N#C/C(OC1OC(CO)C(O)C(O)C1O)=C(\C=C/C(=O)O)CC(=O)O (stereo not drawn)
T/C: 105 % of control
--
compound: CCCC(=O)NC1C(Nc2ccc(S(=O)(=O)Nc3nc(C)cc(C)n3)cc2)OC(CO)C(O)C1O (stereo not drawn)
T/C: 99 % of control
--
compound: C[S+](C)CCCl
T/C: 109 % of control
--
compound: OCC1CC2CCCCN2O1 (stereo not drawn)
T/C: 106 % of control
--
compound: CN(C)CCCN1CCC2(CCSCC2)C1
T/C: 91 % of control
--
compound: CC(O)CN(CCN(CC(C)O)CC(C)O)CC(C)O (stereo not drawn)
T/C: 103 % of control
--
compound: CCCCCCCCC1OCN2CCCCC12 (stereo not drawn)
T/C: 100 % of control
--
compound: O=C(O)CNCCCCCCNCC(=O)O
T/C: 106 % of control
--
compound: OCC1CCC2CCCCC2N1 (stereo not drawn)
T/C: 101 % of control
